TEST DESCRIPTION: Human liver microsome stability
Type: in vitro ADME
SETUP CONDITIONS: human, pooled human liver microsomes, pH 7.4, pooled human liver microsomes 0.5 mg/mL, 1 μM compound, NADPH 1 mM, pH 7.4, 37° C., 0-60 min; read-out: HLM Metabolism t1/2
OBSERVED PROPERTY: half-life at 1 μM

>>> test_result("CNC(=O)[C@@H]1CN([C@H](C)c2cnc(C(F)(F)F)nc2)C(=O)c2c3c(nn21)C[C@@H](C)N(C(=O)c1ccc(Cl)c(Cl)c1)C3")
"> 3 h"
>>> test_result("CNC(=O)[C@@H]1CN([C@@H](C)c2ccc(S(C)(=O)=O)cc2)C(=O)c2c3c(nn21)C[C@@H](C)N(C(=O)c1ccc(Cl)c(Cl)c1)C3 [Compound 18B]")
"> 3 h"
>>> test_result("CNC(=O)[C@@H]1CN(C(C)c2cccc(Cl)n2)C(=O)c2c3c(nn21)C[C@@H](C)N(C(=O)c1ccc(Cl)c(Cl)c1)C3 (single isomer, unassigned) [Compound 38A]")
"> 3 h"

###

half-life at 1 μM values by entry
TEST DESCRIPTION: Human liver microsome stability
Type: in vitro ADME
SETUP CONDITIONS: human, pooled human liver microsomes, pH 7.4, pooled human liver microsomes 0.5 mg/mL, 1 μM compound, NADPH 1 mM, pH 7.4, 37° C., 0-60 min; read-out: HLM Metabolism t1/2
OBSERVED PROPERTY: half-life at 1 μM

>>> test_result("CNC(=O)[C@@H]1CN(C(C)c2ccc(S(C)(=O)=O)cc2)C(=O)c2c3c(nn21)C[C@@H](C)N(C(=O)c1ccc(Cl)c(C(F)(F)F)c1)C3 (single isomer, unassigned) [Compound 19A]")
"> 3 h"
>>> test_result("CNC(=O)[C@@H]1CN([C@@H](C)c2ccc(C(F)(F)F)nc2)C(=O)c2c3c(nn21)C[C@@H](C)N(C(=O)c1ccc(Cl)c(Cl)c1)C3 [Compound 13B]")
"> 3 h"
>>> test_result("CNC(=O)[C@@H]1CN([C@H](C)c2ccc(C(F)(F)F)nc2)C(=O)c2c3c(nn21)C[C@@H](C)N(C(=O)c1ccc(Cl)c(C(F)(F)F)c1)C3 [Compound 15A]")
"> 3 h"
>>> test_result("C[C@@H]1Cc2nn3c(c2CN1C(=O)c1ccc(Cl)c(C#N)c1)C(=O)N([C@H](C)c1ccc(OC(F)F)cc1)C[C@H]3C(=O)N(C)C [Compound 27A]")
"> 3 h"
>>> test_result("CNC(=O)[C@@H]1CN(C(C)c2ccc(C3CC3)nc2)C(=O)c2c3c(nn21)C[C@@H](C)N(C(=O)c1ccc(Cl)c(Cl)c1)C3 (single isomer, unassigned) [Compound 32A]")
"2.12 h"

###

Test system: HepG2 or HepG2.117 cells
TEST DESCRIPTION: Cytotoxicity, ATPlite Luminescence Assay
Format: cell-based, human
SETUP CONDITIONS: 3-days incubation unless marked with *, ATPlite viability
OBSERVED PROPERTY: CC50

>>> test_result("CNC(=O)[C@@H]1CN(C(C)c2ccc(C(F)F)nc2)C(=O)c2c3c(nn21)C[C@@H](C)N(C(=O)c1ccc(Cl)c(Cl)c1)C3 (single isomer, unassigned) [Compound 36B]")
"> 50 µM"
>>> test_result("CNC(=O)[C@@H]1CN(C(C)c2cccc(Cl)n2)C(=O)c2c3c(nn21)C[C@@H](C)N(C(=O)c1ccc(Cl)c(Cl)c1)C3 (single isomer, unassigned) [Compound 38B]")
"> 50 µM"
>>> test_result("CC(c1ccc(OC(F)F)nc1)N1C[C@@H](C(N)=O)n2nc3c(c2C1=O)CN(C(=O)c1ccc(Cl)c(Cl)c1)[C@H](C)C3 (single isomer, unassigned) [Compound 12B]")
"27.4 µM"
>>> test_result("CNC(=O)[C@@H]1CN(C(C)c2nc(C(F)(F)F)cs2)C(=O)c2c3c(nn21)C[C@@H](C)N(C(=O)c1ccc(Cl)c(Cl)c1)C3 (single isomer, unassigned) [Compound 44B]")
"> 50 µM"
>>> test_result("CC(c1ccc(OC(F)F)cc1)N1C[C@@H](C(=O)NC2CC2)n2nc3c(c2C1=O)CN(C(=O)c1ccc(Cl)c(C#N)c1)[C@H](C)C3 (single isomer, unassigned) [Compound 26B]")
"> 50 µM"
